Reported koff values follow for various binders
# target_of_assay: DN quality control product recombinant protein (a recombinant antigen produced by the company itself) (dengue virus)
# experiment_description: AMO sensor, antibody on sensor, antigen in solution
observation_type: koff (s⁻¹)

binder: WT 1-30 (antibody, V domains shown) VH: QVQLQQSGAELVRPGTSVKISCKASGYSFTEYWIGWVKQRPGHGLEWIGDMVPGDLYINYNEKFKGKATLTADTSSNTAYMQLSSLTSEDSAVYFCTNFLTVGGVDYWGRGTSLTVSS VL: DVVMTQTPLTLSVTIGQPASISCKSSNSLLESDGKTYLNWLLQRPGQSPKRLIYLVTKIDSGVPDRFTGSGSVTDFTLKISRVESEDLGVYYCWWGTHFAHTFGAGTKLEVKR
observation_type: koff
meas_value: 0.000149

binder: WT 1-1 (antibody, V domains shown) VH: QVQLQQSGAELVRPGTSVKISCKASGYSFTEYWIGWVKQRPGHGLEWIGDMVPGDLYINYNEKFKGKATLTADTSSNTAYMQLSSLTSEDSAVYFCTNFITVGGVDYWGRGTSLTVSS VL: DVVMTQTPLTLSVTIGQPASISCKSSQSLLESDGKTYLNWLLQRPGQSPKRLIYLVTKIDSGVPDRFTGSGSVTDFTLKISRVESEDLGVYYCWYGTHFAHTFGAGTKLEVKR
observation_type: koff
meas_value: 5.86e-05
